# Test system: Zone of skin
# procedure summary: Biodistribution in ICR mouse skin at 5 to 10 uCi, iv after 2 hrs
# Assay type: ADME, organism-based
# recorded conditions: in vivo
value type: Drug uptake (% ID/g)
Response body: numeric value in % ID/g, unit text excluded.

Name the recorded Drug uptake of the compound listed here: CN(C)c1ccc(/C=C/c2cnc(OCCO)c([125I])c2)cc1
0.4

More entries:
Name the recorded Drug uptake of the compound listed here: CNc1ccc(/C=C/c2cnc(OCCO)c([125I])c2)cc1
1.43

Name the recorded Drug uptake of the compound listed here: CN(C)c1ccc(/C=C/c2cnc(OCCOCCOCCF)c([125I])c2)cc1
1.23

Name the recorded Drug uptake of the compound listed here: CNc1ccc(/C=C/c2cnc(OCCOCCOCCF)c([125I])c2)cc1
1.32

Name the recorded Drug uptake of the compound listed here: OCCOc1ncc(/C=C/c2ccc(O)cc2)cc1[125I]
0.37

###

# Tested on: Zone of skin
# procedure summary: Biodistribution in ICR mouse skin at 5 to 10 uCi, iv after 30 mins
# Format: ADME, organism-based
# recorded conditions: in vivo, 0.5 h
value type: Drug uptake (% ID/g)
Response body: numeric value in % ID/g, unit text excluded.

Guide cases for Drug uptake, answers given:
Enter measured Drug uptake, system Zone of skin, for the molecule shown: CNc1ccc(/C=C/c2cnc(OCCOCCOCCF)c([125I])c2)cc1
2.95

Enter measured Drug uptake, system Zone of skin, for the molecule shown: CNc1ccc(/C=C/c2cnc(OCCO)c([125I])c2)cc1
1.86

Enter measured Drug uptake, system Zone of skin, for the molecule shown: CN(C)c1ccc(/C=C/c2cnc(OCCOCCOCCF)c([125I])c2)cc1
1.47

Enter measured Drug uptake, system Zone of skin, for the molecule shown: CN(C)c1ccc(/C=C/c2cnc(OCCO)c([125I])c2)cc1
1.18

Now consider a different molecule.
Enter measured Drug uptake, system Zone of skin, for the molecule shown: OCCOc1ncc(/C=C/c2ccc(O)cc2)cc1[125I]
1.36

###

# System: Heart
# procedure summary: Biodistribution in ICR mouse heart at 5 to 10 uCi, iv after 1 hr
# Format: ADME, organism-based
# recorded conditions: in vivo
Listed here: items and their measured Drug uptake.
Response body: numeric value in % ID/g, unit text excluded.

Name the recorded Drug uptake of the compound listed here: CN(C)c1ccc(/C=C/c2cnc(OCCO)c([125I])c2)cc1
1.12

Name the recorded Drug uptake of the compound listed here: CN(C)c1ccc(/C=C/c2cnc(OCCOCCOCCF)c([125I])c2)cc1
0.97

Name the recorded Drug uptake of the compound listed here: OCCOc1ncc(/C=C/c2ccc(O)cc2)cc1[125I]
0.65

Name the recorded Drug uptake of the compound listed here: CNc1ccc(/C=C/c2cnc(OCCOCCOCCF)c([125I])c2)cc1
1.75

Name the recorded Drug uptake of the compound listed here: CNc1ccc(/C=C/c2cnc(OCCO)c([125I])c2)cc1
0.88

###

Listed here: items and their measured Drug uptake.
# System: Heart
# procedure summary: Biodistribution in ICR mouse heart at 5 to 10 uCi, iv after 2 mins
# Assay type: ADME, organism-based
# recorded conditions: in vivo
Response body: numeric value in % ID/g, unit text excluded.

Guide cases for Drug uptake, answers given:
Name the recorded Drug uptake of the molecule listed here: CNc1ccc(/C=C/c2cnc(OCCO)c([125I])c2)cc1
7.16

Name the recorded Drug uptake of the molecule listed here: OCCOc1ncc(/C=C/c2ccc(O)cc2)cc1[125I]
6.66

Name the recorded Drug uptake of the molecule listed here: CNc1ccc(/C=C/c2cnc(OCCOCCOCCF)c([125I])c2)cc1
9.85

Name the recorded Drug uptake of the molecule listed here: CN(C)c1ccc(/C=C/c2cnc(OCCO)c([125I])c2)cc1
10.2

Now consider a different molecule.
Name the recorded Drug uptake of the molecule listed here: CN(C)c1ccc(/C=C/c2cnc(OCCOCCOCCF)c([125I])c2)cc1
12.76
